- System Name: human TLR8 (hTLR8) (Homo sapiens, UniProt Q9NR97)
- Sequence (Q9NR97 27-1041): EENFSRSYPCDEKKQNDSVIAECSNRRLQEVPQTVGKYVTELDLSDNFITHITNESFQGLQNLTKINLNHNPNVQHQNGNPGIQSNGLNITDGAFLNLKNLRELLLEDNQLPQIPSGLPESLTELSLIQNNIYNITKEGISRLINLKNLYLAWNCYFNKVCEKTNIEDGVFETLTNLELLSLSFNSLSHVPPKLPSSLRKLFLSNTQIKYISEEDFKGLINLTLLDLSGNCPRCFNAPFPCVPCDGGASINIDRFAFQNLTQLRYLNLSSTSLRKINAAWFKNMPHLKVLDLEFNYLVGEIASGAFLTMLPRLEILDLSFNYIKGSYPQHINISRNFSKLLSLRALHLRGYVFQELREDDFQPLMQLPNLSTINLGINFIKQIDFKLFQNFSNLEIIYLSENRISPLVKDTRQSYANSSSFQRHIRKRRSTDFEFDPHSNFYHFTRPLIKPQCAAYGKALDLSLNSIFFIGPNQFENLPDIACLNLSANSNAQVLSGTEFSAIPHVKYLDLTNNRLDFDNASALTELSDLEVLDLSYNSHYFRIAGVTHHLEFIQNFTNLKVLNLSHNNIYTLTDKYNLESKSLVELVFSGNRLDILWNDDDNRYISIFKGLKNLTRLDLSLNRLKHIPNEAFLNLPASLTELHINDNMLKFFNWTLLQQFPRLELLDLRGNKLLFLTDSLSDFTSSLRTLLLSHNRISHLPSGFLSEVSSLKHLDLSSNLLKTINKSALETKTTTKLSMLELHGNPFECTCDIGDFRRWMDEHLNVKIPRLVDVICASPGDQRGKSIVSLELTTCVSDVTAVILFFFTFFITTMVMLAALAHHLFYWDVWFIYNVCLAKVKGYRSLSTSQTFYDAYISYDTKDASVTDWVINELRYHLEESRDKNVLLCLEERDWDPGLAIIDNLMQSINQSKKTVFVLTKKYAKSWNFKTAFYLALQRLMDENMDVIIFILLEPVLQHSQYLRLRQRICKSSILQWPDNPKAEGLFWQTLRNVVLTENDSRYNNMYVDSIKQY
- Assay Explanation: Human TLR8 agonist activity assay (measured in a similar manner)
- Run Parameters: HEK-Blue TLR cells, SEAP reporter, measured in a similar manner to TLR7; some values average of multiple measurements
Consider the following molecules; for each one, report its pEC50.
Answers are plain numbers, as −log10 of the molar value.

Recorded pEC50, per entry:
pEC50 reported for this molecule CCCCN(CCO)c1nc(N)nc2cn(Cc3ccc(CNCCO)cc3C(F)F)nc12 [Compound 129] : 5.57

pEC50 reported for this molecule CCCCN(CCO)c1nc(N)nc2cn(Cc3c(F)cc(C4CCN(CCS(C)(=O)=O)CC4)cc3OC)nc12 [Compound 42] : 6.30

pEC50 reported for this molecule CCCCN(c1nc(N)nc2cn(Cc3ccc(CN4CCCCC4)cc3OC)nc12)C(C)CO (single isomer, unassigned) [Compound 49-1] : 6.02

pEC50 reported for this molecule CCCCN(CCO)c1nc(N)nc2cn(Cc3ccc(CNC4CCOCC4)c4scnc34)nc12 [Compound 180] : 6.64

pEC50 reported for this molecule CCCCN(CCO)c1nc(N)nc2cn(Cc3c(F)cc(CN[C@@H]4CCOC4)cc3OC)nc12 [Compound 75] : 6.17

pEC50 reported for this molecule CCCCN(CCO)c1nc(N)nc2cn(Cc3ccc(CNC4CCOC4(C)C)cc3OC)nc12 (centres unmarked) [Compound 153] : 6.51

Value sought for every listed molecule: pEC50.
1. CCCCN(CCO)c1nc(N)nc2cn(Cc3ccc(CNCC4CCC4)cc3C(F)F)nc12 [Compound 130]
2. CCCCN(CCO)c1nc(N)nc2cn(Cc3ccc(CNC(C)(C)CO)cc3OC)nc12 [Compound 32]

Response:
1. 5.73
2. 5.92

====

- System Name: human TLR7 (hTLR7) (Homo sapiens, UniProt Q9NYK1)
- Sequence (Q9NYK1 27-1049): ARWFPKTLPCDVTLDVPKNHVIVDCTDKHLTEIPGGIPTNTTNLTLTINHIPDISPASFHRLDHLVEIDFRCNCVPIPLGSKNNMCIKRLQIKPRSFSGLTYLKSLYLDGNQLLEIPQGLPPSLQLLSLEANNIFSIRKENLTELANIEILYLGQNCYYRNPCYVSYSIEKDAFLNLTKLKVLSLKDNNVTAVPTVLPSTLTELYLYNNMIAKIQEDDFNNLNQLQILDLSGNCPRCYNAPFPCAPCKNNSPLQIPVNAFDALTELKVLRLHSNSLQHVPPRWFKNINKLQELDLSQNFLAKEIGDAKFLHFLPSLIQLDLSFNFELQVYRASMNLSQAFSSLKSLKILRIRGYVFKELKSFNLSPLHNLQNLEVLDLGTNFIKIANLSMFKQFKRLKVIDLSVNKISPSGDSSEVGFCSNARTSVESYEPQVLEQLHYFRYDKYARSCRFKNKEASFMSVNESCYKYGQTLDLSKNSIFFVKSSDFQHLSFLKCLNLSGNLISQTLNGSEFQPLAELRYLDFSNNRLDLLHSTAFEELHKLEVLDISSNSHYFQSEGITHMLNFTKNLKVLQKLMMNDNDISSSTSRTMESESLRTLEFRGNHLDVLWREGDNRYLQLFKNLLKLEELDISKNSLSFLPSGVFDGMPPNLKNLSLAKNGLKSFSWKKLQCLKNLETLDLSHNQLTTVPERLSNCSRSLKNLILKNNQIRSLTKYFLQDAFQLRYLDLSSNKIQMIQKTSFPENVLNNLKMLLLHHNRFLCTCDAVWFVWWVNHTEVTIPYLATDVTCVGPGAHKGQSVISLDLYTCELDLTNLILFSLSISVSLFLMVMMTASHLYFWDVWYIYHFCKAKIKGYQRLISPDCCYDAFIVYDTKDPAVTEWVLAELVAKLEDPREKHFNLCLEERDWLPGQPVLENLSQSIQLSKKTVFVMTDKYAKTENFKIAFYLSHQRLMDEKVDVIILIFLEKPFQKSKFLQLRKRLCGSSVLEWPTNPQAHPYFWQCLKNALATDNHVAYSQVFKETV
- Assay Explanation: Human TLR7 agonist activity assay (HEK-Blue TLR7 SEAP reporter)
- Run Parameters: HEK-Blue TLR7 cells, 18 h incubation, Quanti-Blue, OD 620 nm, some values average of multiple measurements
Endpoint Name: EC50 (nM)
Give bare numbers, in nM.

EC50 reported for this molecule CCCCN(CCO)c1nc(N)nc2cn(Cc3ccc(CN[C@@H]4CCCN(C(=O)OC)C4)c4cccnc34)nc12 [Compound 185] : 499

EC50 reported for this molecule CCCCN(CCO)c1nc(N)nc2cn(Cc3ccc(CNC4CCOCC4)cc3)nc12 [Compound 158] : 1160

EC50 reported for this molecule CCCCN(CCO)c1nc(N)nc2cn(Cc3ccc(CN[C@@H]4CCOC4)cc3OC)nc12 [Compound 85] : 148

EC50 reported for this molecule CCCCN(CCO)c1nc(N)nc2cn(Cc3ccc(CN[C@H]4CCN(C(C)C)C4)cc3OC)nc12 [Compound 56] : 1700

EC50 reported for this molecule CCCCN(c1nc(N)nc2cn(Cc3ccc(CN4CCCCC4)cc3OC)nc12)C(C)CO (single isomer, unassigned) [Compound 49-1] : 374

EC50 reported for this molecule CCCCN(CCO)c1nc(N)nc2cn(Cc3ccc(CNC4CCOCC4)cc3C(F)F)nc12 [Compound 100] : 1760

Now, please, on to the next molecule.
EC50 reported for this molecule CCCCN(CCO)c1nc(N)nc2cn(Cc3ccc(CN[C@H]4CCOC4)c4c3OCCC4)nc12 [Compound 136] : 861
